Reference for the values: PubChem BioAssay AID1347420

target: Sulfhydryl oxidase 1 (Homo sapiens); experiment: inhibition of human sulfhydryl oxidase QSOX1 – biochemical, HyperBlu H2O2 luminescence, HTS, primary screen (AID 1347420); conditions: recombinant QSOX1, HyperBlu H2O2 luminescence; at 12.5 µM; active compounds read high; active = any value above zero; note: values above 100% were filed as inconclusive
About 980 (75%) of roughly 1,300 compounds were called active. About 4% were inconclusive and are not listed. The list shows a part of the results.
Just give me one of these, please: y (active), n (inactive)

Before answering, review these 4 worked examples.
Cc1cc(C(C)(C)C)cc(C)c1CC1=NCCN1 = y
CC(C)C[C@H](NC(=O)[C@@H](O)[C@H](N)Cc1ccccc1)C(=O)O = y
Cc1cc(C(C)(C)C)c(O)c(C)c1CC1=NCCN1 = y
Cc1cn[nH]c1 = n

Challenge: Per the assay record, what outcome was assigned to CN1C2CCC1CC(OC(=O)c1c[nH]c3ccccc13)C2 (stereo not given) ?
Response given: y

Challenge: Hey, what did the test say about NCCSSCCN ?
Response given: y

Challenge: Record request — test call for N#Cc1cc2nc(O)c(O)nc2cc1[N+](=O)[O-]
Response given: y
